- TARGET DESC: cAMP and cAMP-inhibited cGMP 3',5'-cyclic phosphodiesterase 10A (Homo sapiens)
- Sequence (Q9Y233 whole entry): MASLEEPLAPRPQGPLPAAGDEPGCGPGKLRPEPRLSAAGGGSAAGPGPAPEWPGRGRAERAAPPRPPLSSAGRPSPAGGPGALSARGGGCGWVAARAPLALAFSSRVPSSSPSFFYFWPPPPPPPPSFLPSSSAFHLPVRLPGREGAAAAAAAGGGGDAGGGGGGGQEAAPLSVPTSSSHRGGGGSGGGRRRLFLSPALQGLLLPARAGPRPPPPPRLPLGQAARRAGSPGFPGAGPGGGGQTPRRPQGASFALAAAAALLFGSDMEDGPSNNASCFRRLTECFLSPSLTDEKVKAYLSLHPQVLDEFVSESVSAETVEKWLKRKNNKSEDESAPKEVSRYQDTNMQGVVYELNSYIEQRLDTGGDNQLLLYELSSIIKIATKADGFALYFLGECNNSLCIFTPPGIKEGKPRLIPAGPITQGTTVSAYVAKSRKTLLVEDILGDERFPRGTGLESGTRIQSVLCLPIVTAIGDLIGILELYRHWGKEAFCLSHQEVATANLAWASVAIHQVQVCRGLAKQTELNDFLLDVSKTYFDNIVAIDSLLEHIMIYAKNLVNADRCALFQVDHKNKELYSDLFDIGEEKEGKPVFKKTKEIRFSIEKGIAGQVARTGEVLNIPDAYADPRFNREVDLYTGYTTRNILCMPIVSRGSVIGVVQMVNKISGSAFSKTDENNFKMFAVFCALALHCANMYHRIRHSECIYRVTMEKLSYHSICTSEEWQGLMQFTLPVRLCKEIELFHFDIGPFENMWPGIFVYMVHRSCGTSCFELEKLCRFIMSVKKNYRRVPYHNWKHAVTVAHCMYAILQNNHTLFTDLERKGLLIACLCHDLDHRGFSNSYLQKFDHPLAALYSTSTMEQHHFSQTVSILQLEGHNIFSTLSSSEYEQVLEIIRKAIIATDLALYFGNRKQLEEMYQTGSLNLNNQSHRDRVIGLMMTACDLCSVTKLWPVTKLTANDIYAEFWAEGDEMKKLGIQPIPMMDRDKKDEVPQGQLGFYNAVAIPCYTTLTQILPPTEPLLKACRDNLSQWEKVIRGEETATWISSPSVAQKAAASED
- ASSAY COMMENT: Diaxonhit Phosphodiesterase Assay: The phosphodiesterase assay was developed using the LANCE cAMP kit (PerkinElmer). The assay buffer contained HBSS with 5 mM HEPES, 0.1% BSA, and 1.5 mM MgCl2, pH 7.4. PDE10A (BPS Bioscience) was used at 200 pg/well (with a specific activity of 3200 pmole/min/ug with assay conditions: 10 mM Tris-HCl, pH 7.4, 10 mM MgCl2, 1 mM MnCl2, 200 uM cAMP, 2.5 kU 5' nucleotidase, 37° C., 20 min) and PDE4D3 (BPS Bioscience) was used at 100 pg/well (with a specific activity of 32713 pmole/min/ug with assay conditions: 10 mM Tris-HCl, pH 7.4, 10 mM MgCl2, 1 mM MnCl2, 200 uM cAMP, 2.5 kU 5' nucleotidase, 37° C., 20 min). The Biotin-cAMP tracer, supplied in 10 mmol/L Tris-HCl buffered (pH 8.0) salt solution with 1 mmol/L ethylenediaminetetraacetic acid (EDTA), 0.1% bovine serum albumin (BSA), and 0.05% sodium azide, is used at a dilution of 1/375. The assay detection mixture contained the LANCE Eu-W8044 labeled streptavidin 1/2250 (supplied in 50 mmol/L Tris-HCl buffer).
pIC50: −log10 of the molar value.
The threshold is inclusive: pIC50 of exactly 7 counts as true; values below receive false.

- SMI: "CCOc1cccc2ccc(Cc3cncc4cc(OC)c(OC)cc34)nc12"
  CATEGORY LABEL: "true"
- SMI: "COc1cc2c[n+]([O-])cc(Cc3ccc4oc5ccccc5c4c3)c2cc1OC"
  CATEGORY LABEL: "true"
- SMI: "COc1cc2cnc(C)c(Cc3ccc4cccc(O)c4n3)c2cc1OC"
  CATEGORY LABEL: "true"
- SMI: "CCCc1ncc(Cc2ccc3oc4ccccc4c3c2)c2cc(OC)c(OC)cc12"
  CATEGORY LABEL: "false"
- SMI: "CCCc1ncc(Cc2coc3ccc(C)cc3c2=O)c2cc(OC)c(OC)cc12"
  CATEGORY LABEL: "true"
